target_desc: T1, human OT7T175 (metastin receptor) (human, UniProt Q969F8 1-398)
T1 construct: expressed on CHO cells; also called hOT7T175; hOT7T175-expressed CHO cells
method_notes: competition with Cy-5 metastin (40-54) on hOT7T175-CHO cells, FMAT
Experimental: hOT7T175-Expressed CHO cells were cultured in MEM-α medium (nucleic acid-free) containing 10% dialyzed serum. The medium was removed and the adhered cells were washed with PBS. Then, PBS containing 5 mM EDTA was added and the cells were scraped from a flask with a cell scraper. […]
Non-standard residues stand in square brackets, D forms with d. No end group written: not given here. *: point of attachment. Propanoyl(3-(3-pyridyl)) = O=C(CCc1cccnc1)*; indole‑3‑acetyl = O=C(Cc1c[nH]c2ccccc12)*; Phe(4-NH2) = Nc1ccc(C[C@H](N)C(=O)O)cc1; Arg(Me) = CNC(=N)NCCC[C@H](N)C(=O)O; azaGly = NNC(=O)O
experimental_readout: IC50 (nM)
// units = nM; emit number, no label

Please report the measured IC50 for {Propanoyl(3-(3-pyridyl))}-NSF[azaGly]L[Arg(Me)]F-NH2 (SMILES CNC(=N)NCCC[C@H](NC(=O)[C@H](CC(C)C)NC(=O)NNC(=O)[C@H](Cc1ccccc1)NC(=O)[C@H](CO)NC(=O)[C@H](CC(N)=O)NC(=O)CCc1cccnc1)C(=O)N[C@@H](Cc1ccccc1)C(N)=O, also called Compound No. 322) [des(1-3)-3-(3-Pyridyl)propionyl-[AzaGly7,Arg(Me)9]MS10] 54

Read the entry [dY]N[Phe(4-NH2)]NSF[azaGly]L[Arg(Me)]F-NH2 (N-terminus assumed; SMILES CNC(=N)NCCC[C@H](NC(=O)[C@H](CC(C)C)NC(=O)NNC(=O)[C@H](Cc1ccccc1)NC(=O)[C@H](CO)NC(=O)[C@H](CC(N)=O)NC(=O)[C@H](Cc1ccc(N)cc1)NC(=O)[C@H](CC(N)=O)NC(=O)[C@H](N)Cc1ccc(O)cc1)C(=O)N[C@@H](Cc1ccccc1)C(N)=O, also called Compound No. 250) [[D-Tyr1,Phe(4NH2)3,AzaGly7,Arg(Me)9]MS10] and write its reported IC50. 3.7

For YYWNSFGLRF-NH2 (also called Compound No. 58) [[Tyr2]MS10] , write its IC50. 16

State, in one line, measured IC50 of [dN][dW]NSFGL[Arg(Me)]F-NH2 (N-terminus assumed; SMILES CNC(=N)NCCC[C@H](NC(=O)[C@H](CC(C)C)NC(=O)CNC(=O)[C@H](Cc1ccccc1)NC(=O)[C@H](CO)NC(=O)[C@H](CC(N)=O)NC(=O)[C@@H](Cc1c[nH]c2ccccc12)NC(=O)[C@H](N)CC(N)=O)C(=O)N[C@@H](Cc1ccccc1)C(N)=O, also called Compound No. 225) [des(1)-[D-Asn2,D-Trp3,Arg(Me)9]MS10] 410

Please indicate IC50 recorded for {indole‑3‑acetyl}-NSF[azaGly]L[Arg(Me)]F-NH2 (SMILES CNC(=N)NCCC[C@H](NC(=O)[C@H](CC(C)C)NC(=O)NNC(=O)[C@H](Cc1ccccc1)NC(=O)[C@H](CO)NC(=O)[C@H](CC(N)=O)NC(=O)Cc1c[nH]c2ccccc12)C(=O)N[C@@H](Cc1ccccc1)C(N)=O, also called Compound No. 266) [des(1-3)-Indole-3-acetyl-[AzaGly7,Arg(Me)9]MS10] 230

Consider the binder YNWNSXGLRF (Cha6; C-terminal amide, also called Compound No. 156) [[Cha6]MS10] and give its recorded IC50. 49

Item YNWNSFGLRW-NH2 (also called Compound No. 134) [[Trp10]MS10] : provide IC50 110

Reference source: patent US20090298765A1
